- assay target: Met kinase (Homo sapiens, UniProt P08581)
- Sequence (P08581 25-1390): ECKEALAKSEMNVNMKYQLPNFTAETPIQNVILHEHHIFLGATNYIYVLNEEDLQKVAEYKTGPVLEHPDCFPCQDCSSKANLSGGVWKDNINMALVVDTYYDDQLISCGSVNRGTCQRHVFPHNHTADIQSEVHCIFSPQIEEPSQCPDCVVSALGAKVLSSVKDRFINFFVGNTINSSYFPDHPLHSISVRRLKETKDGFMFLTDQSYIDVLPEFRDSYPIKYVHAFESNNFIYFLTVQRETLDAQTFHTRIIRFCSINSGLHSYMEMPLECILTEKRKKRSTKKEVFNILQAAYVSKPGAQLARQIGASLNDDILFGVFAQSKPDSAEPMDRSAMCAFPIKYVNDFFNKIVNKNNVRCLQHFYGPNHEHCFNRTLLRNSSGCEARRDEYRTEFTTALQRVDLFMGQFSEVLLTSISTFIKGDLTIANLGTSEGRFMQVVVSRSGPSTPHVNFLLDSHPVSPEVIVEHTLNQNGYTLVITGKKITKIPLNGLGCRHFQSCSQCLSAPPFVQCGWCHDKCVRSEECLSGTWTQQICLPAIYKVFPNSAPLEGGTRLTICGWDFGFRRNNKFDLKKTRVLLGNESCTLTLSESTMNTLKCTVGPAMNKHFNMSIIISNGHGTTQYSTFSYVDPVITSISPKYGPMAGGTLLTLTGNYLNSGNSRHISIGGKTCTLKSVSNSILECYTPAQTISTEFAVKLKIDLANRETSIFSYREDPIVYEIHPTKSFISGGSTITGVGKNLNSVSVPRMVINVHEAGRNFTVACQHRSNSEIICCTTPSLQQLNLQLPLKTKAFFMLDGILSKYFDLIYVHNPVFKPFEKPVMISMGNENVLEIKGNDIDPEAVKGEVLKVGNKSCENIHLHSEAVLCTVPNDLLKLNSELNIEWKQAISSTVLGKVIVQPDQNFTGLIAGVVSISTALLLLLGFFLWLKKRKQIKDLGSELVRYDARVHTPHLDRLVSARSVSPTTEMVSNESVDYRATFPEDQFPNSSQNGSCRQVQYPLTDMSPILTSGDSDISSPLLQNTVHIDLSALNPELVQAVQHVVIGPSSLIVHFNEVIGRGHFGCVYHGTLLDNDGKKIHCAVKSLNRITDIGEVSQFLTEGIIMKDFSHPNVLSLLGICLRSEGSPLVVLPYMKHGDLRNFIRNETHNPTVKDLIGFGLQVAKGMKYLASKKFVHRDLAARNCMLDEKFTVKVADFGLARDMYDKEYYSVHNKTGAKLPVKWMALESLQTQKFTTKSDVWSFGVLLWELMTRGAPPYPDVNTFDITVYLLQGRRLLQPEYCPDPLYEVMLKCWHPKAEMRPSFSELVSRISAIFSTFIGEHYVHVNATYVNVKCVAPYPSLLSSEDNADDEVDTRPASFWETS
Parameter: IC50. Scope: all listed entries.

Worked examples, 5 molecules total:
# molecule, IC50
records = [
    ("Cc1cnc(-c2cccc(CN3N=C(c4nccs4)CSC3=O)c2)nc1 [Compound A1]", "10 to 1000 nM"),
    ("Nc1cnc(-c2cccc(CN3N=C(c4cc(F)cc(F)c4)CSC3=O)c2)nc1 [Compound A4]", "10 to 1000 nM"),
    ("CN(C)CCCOc1cnc(-c2cccc(CN3N=C(c4cc(F)cc(F)c4)CSC3=O)c2)nc1 [Compound A8]", "10 to 1000 nM"),
    ("CN(C)CCCOc1cnc(-c2cccc(CN3N=C(c4nccs4)CSC3=O)c2)nc1 [Compound A7]", "10 to 1000 nM"),
    ("Nc1cnc(-c2cccc(CN3N=C(c4nccs4)CSC3=O)c2)nc1 [Compound A10]", "10 to 1000 nM"),
]

# evaluate next
Req: Returns the measured IC50 for the input molecule. Input: CN(C)CCCOc1cnc(-c2cccc(CN3N=C(c4ccc(C#N)cc4)CSC3=O)c2)nc1 [Compound A9]
Resp: 10 to 1000 nM

Source: patent US8211886B2
